- Tested on: Stenotrohomonas maltophilia SR21970
- ASSAY REMARKS: MIC, agar plate incubation (CLSI), Mueller-Hinton agar
- Format: cell-based
- MEASUREMENT CONDITIONS: Stenotrophomonas maltophilia, S. maltophilia SR21970, L-1, MBL producing (carbapenem resistant) strain, 10000 cfu/spot, read-out: Minimum Inhibitory Concentration (MIC)
- Method: (Test Methods for Compounds (I-1) to (I-9), (I-16), (I-17) and (I-23)) (Microbe/Strain Species No. 5): Measurement of Minimum Inhibitory Concentration (MIC, microgram/ml) was conducted according to the CLSI (Clinical and Laboratory Standards Institute) and the amount of bacteria for inoculation was 10000 cfu/spot, and Mueller-Hinton agar medium was used as the test medium, and conducted using agar plate incubation.
MEASURED QUANTITY: MIC (µg/mL)
// note: answer is a bare numeric in µg/mL

Consider the following illustrative entries.
COMPOUND	MIC / µg/mL
Nc1nc(C(=CCC(=O)[O-])C(=O)N[C@@H]2C(=O)N3C(C(=O)[O-])=C(C[N+]4(CCNC(=O)c5ccc(O)c(O)c5Cl)CCCC4)CS[C@H]23)cs1.[Na+]	4
CCN1CCN(C(=O)N[C@@H](C(=O)N[C@@H]2C(=O)N3C(C(=O)[O-])=C(C[N+]4(CCNC(=O)c5ccc(O)c(O)c5Cl)CCCC4)CS[C@H]23)c2ccccc2)C(=O)C1=O	2

// next entry
Ask: // lookup MIC for CC(C)(O/N=C(\C(=O)NC1C(=O)N2C(C(=O)O)=C(C[N+]3(CCNC(=O)c4ccc(O)c(O)c4Cl)CCCC3)CS[C@H]12)c1ccc(O)c(F)c1)C(=O)[O-] (stereo partly shown)
Result: 2

---

- Test system: Klebsiella pneumoniae ATCC 700603
- ASSAY REMARKS: MIC, agar plate incubation (Japan Society for Chemotherapy standard method)
- Type: cell-based
- MEASUREMENT CONDITIONS: K. pneumoniae ATCC700603, SHV-18, ESBL producing strain, sensitive disc medium, 1000 cfu/spot, read-out: Minimum Inhibitory Concentration (MIC)
MEASURED QUANTITY: MIC (µg/mL)
// note: answer is a bare numeric in µg/mL

Consider the following illustrative entries.
MOLECULE	STUDY SYSTEM	READOUT NUMBER
CCN1CCN(C(=O)N[C@@H](C(=O)N[C@@H]2C(=O)N3C(C(=O)[O-])=C(C[N+]4(CCNC(=O)c5ccc(O)c(O)c5Cl)CCCC4)CS[C@H]23)c2ccccc2)C(=O)C1=O	Klebsiella pneumoniae ATCC 700603	1
CC(C)(O/N=C(\C(=O)NC1C(=O)N2C(C(=O)O)=C(C[N+]3(CCNC(=O)c4ccc(O)c(O)c4Cl)CCCC3)CS[C@H]12)c1ccc(O)c(F)c1)C(=O)[O-] (stereo partly shown)	Klebsiella pneumoniae ATCC 700603	4
Nc1nc(C(=CCC(=O)[O-])C(=O)N[C@@H]2C(=O)N3C(C(=O)[O-])=C(C[N+]4(CCNC(=O)c5ccc(O)c(O)c5Cl)CCCC4)CS[C@H]23)cs1.[Na+]	Klebsiella pneumoniae ATCC 700603	0.5

Ask: // lookup MIC for "CCN1CCN(C(=O)N[C@@H](C(=O)N[C@@H]2C(=O)N3C(C(=O)[O-])=C(C[N+]45CCC(CNC(=O)c6ccc(O)c(O)c6Cl)(CC4)CC5)CO[C@H]23)c2ccccc2)C(=O)C1=O"
Result: 16

---

Parameter: MIC. Scope: all listed entries.
- Test system: Pseudomonas aeruginosa SR24
- ASSAY REMARKS: MIC, agar plate incubation (Japan Society for Chemotherapy standard method)
- Type: cell-based
- MEASUREMENT CONDITIONS: P. aeruginosa SR24, ceftazidime sensitive strain, sensitive disc medium, 1000 cfu/spot, read-out: Minimum Inhibitory Concentration (MIC)
// note: answer is a bare numeric in µg/mL

Consider the following illustrative entries.
COMPOUND	MEASURED QUANTITY	READOUT NUMBER
CC(C)(O/N=C(\C(=O)NC1C(=O)N2C(C(=O)O)=C(C[N+]3(CCNC(=O)c4ccc(O)c(O)c4Cl)CCCC3)CS[C@H]12)c1ccc(O)c(F)c1)C(=O)[O-] (stereo partly shown)	MIC	0.25
CCN1CCN(C(=O)N[C@@H](C(=O)N[C@@H]2C(=O)N3C(C(=O)[O-])=C(C[N+]4(CCNC(=O)c5ccc(O)c(O)c5Cl)CCCC4)CS[C@H]23)c2ccccc2)C(=O)C1=O	MIC	0.063
Nc1nc(C(=CCC(=O)[O-])C(=O)N[C@@H]2C(=O)N3C(C(=O)[O-])=C(C[N+]4(CCNC(=O)c5ccc(O)c(O)c5Cl)CCCC4)CS[C@H]23)cs1.[Na+]	MIC	0.25

// next entry
Ask: // lookup MIC for "CCN1CCN(C(=O)N[C@@H](C(=O)N[C@@H]2C(=O)N3C(C(=O)[O-])=C(C[N+]45CCC(CNC(=O)c6ccc(O)c(O)c6Cl)(CC4)CC5)CO[C@H]23)c2ccccc2)C(=O)C1=O"
Result: 0.5

The reported numbers originate from patent US9085589B2.
